Reported TGI values are given for each entry in this list.
test system: SW-620 colon; assay: NCI tumour cell line growth inhibition, 48 h

compound	TGI
S=c1nc(COc2ccc(Cl)cc2)[nH][nH]1	> 100 µM
COC(=O)[C@@H](C)C[C@H](Cc1ccccc1)NC(=O)c1nc([C@@H](C[C@H](C(C)C)N(C)C(=O)[C@@H](NC(=O)[C@H]2CCCCN2C)C(C)C)OC(C)=O)sc1C(C)C	> 25.7 µM
NCC(O)CSP(=O)(O)O (stereo not given)	> 100 µM
COc1ccc(-n2cnc3c(NCC(=O)O)ncnc32)cc1	> 100 µM
COc1ccc(C=C2C(=O)NC(=S)NC2=O)c2ccccc12	> 100 µM

====

test system: UO-31 renal; assay: NCI tumour cell line growth inhibition, 48 h; in the data active = GI50 below about 0.43 µM; inactive = the rest
Where a SMILES comes first, the peptide text is derived from it. [ ]: non-standard residue; d: D form. The star is where a group is joined. ξ: configuration not given here. NMeF = CN[C@@H](Cc1ccccc1)C(=O)O; NMeN = CN[C@@H](CC(N)=O)C(=O)O; NMeV = CN[C@H](C(=O)O)C(C)C; ξNMeV = CNC(C(=O)O)C(C)C; Boc = CC(C)(C)OC(=O)*; ξNMeA = CNC(C)C(=O)O; ξV = CC(C)C(N)C(=O)O
Possible outcomes: Yes (active), No (inactive)

molecule	answerLabel
NC(=O)c1cc(Cl)ccc1NC(=O)COc1ccccc1	No
CN1C(=O)C23CC4(C56CC78SSC(CO)(C(=O)N7C5Nc5ccccc56)N(C)C8=O)c5ccccc5NC4N2C(=O)C1(CO)SS3 (configuration not stated)	Yes
O=C(Cc1ccc(OCc2ccccc2)cc1)NCc1ccc2c(c1)OCO2	No
Cc1oc2nc[nH]c(=O)c2c1C(=O)/C=C/c1ccc(Br)cc1	No
Cc1n(Cc2ccc3ccccc3c2)c2ccccc2[n+]1Cc1ccc2ccccc2c1	No
COC(=O)C(C)N(C)C(=O)[C@H](CC(N)=O)N(C)C(=O)[C@@H]1CCCN1C(=O)[C@H](C(C)C)N(C)C(=O)C(C(C)C)N(C)C(=O)[C@H](Cc1ccccc1)N(C)C(=O)C(NC(=O)OC(C)(C)C)C(C)C (some centres not stated) (Boc-[ξV][NMeF][ξNMeV][NMeV]P[NMeN][ξNMeA]-OMe)	No
O=C(Nc1ccc(-n2ccc3c(NC(=O)c4ccccc4)ncnc32)cc1)c1ccc(Cl)c(C(F)(F)F)c1	No
Cc1cc(-c2ccc(C3C(C#N)=C(N)Oc4c3c(=O)oc3ccccc43)cc2)cnc1F (configuration not stated)	No
CN(C)c1ccc(N=Nc2ccc(Br)cn2)c(O)c1	Yes
CC(C)CC(=O)[O-].N.N.N.N.N.[Co+3].[O-][Cl+3]([O-])([O-])[O-]	No
COc1ccc2[nH]c(=O)c(/C=C/C(=O)c3ccccc3OC)cc2c1	No
CC(C)=C[C@@H]1C[C@H](C)[C@H]2CC[C@H](C)c3c(O)c(OC4OCC(O)C(O)C4O)c(C)c1c32 (some centres not stated)	No

====

test system: SK-OV-3 ovarian; experiment: NCI tumour cell line growth inhibition, 48 h
Reported TGI values are given for each entry in this list.
reportedEndpoint: TGI

> print(dat)
                                    compound  reportedendpoint  measvalue
 1  Cc1cc(NS(=O)(=O)c2ccc(NC(=O)c3ccc(Cl)c4c(Nc5ccc(S(N)(=O)=O)cc5)c5ccccc5nc34)cc2)no1               TGI    59.2 µM
 2                CCCCCCCCCCCCCC(=S)N/C=C/OC               TGI   > 100 µM
 3  Cc1cn(C2OC(CO)C(O)C2O)c(=O)[nH]c1=O (stereo not given)               TGI  > 1000 µM
 4  O=c1[nH]c2ccccc2c(O)c1/C=N/C(=S)NCCc1ccccc1               TGI   > 100 µM
 5  COc1ccc(CNC(=O)[C@H](Cc2ccc(O)cn2)NC(C)=O)cc1OC               TGI   > 100 µM
 6  COc1cccc(-n2ncc3c(N/N=C/c4cccc(F)c4)ncnc32)c1               TGI    9.14 µM
 7         CN(C)c1ccc(N=Nc2ccc(Br)cn2)c(O)c1               TGI   > 100 µM
 8                           COC(=O)CC(=O)OC               TGI   > 100 µM
 9  CC(C)CC(=O)[O-].N.N.N.N.N.[Co+3].[O-][Cl+3]([O-])([O-])[O-]               TGI   > 100 µM
10  COc1cc(/C=C\c2cc(/C=C\c3ccc(O)c(OC)c3)n(C(=O)COc3ccccc3)n2)ccc1O               TGI    3.45 µM
